target: HPK1 (Homo sapiens (Human), UniProt Q92918, S171E/T165E)
Sequence (Q92918 whole entry T165E/S171E): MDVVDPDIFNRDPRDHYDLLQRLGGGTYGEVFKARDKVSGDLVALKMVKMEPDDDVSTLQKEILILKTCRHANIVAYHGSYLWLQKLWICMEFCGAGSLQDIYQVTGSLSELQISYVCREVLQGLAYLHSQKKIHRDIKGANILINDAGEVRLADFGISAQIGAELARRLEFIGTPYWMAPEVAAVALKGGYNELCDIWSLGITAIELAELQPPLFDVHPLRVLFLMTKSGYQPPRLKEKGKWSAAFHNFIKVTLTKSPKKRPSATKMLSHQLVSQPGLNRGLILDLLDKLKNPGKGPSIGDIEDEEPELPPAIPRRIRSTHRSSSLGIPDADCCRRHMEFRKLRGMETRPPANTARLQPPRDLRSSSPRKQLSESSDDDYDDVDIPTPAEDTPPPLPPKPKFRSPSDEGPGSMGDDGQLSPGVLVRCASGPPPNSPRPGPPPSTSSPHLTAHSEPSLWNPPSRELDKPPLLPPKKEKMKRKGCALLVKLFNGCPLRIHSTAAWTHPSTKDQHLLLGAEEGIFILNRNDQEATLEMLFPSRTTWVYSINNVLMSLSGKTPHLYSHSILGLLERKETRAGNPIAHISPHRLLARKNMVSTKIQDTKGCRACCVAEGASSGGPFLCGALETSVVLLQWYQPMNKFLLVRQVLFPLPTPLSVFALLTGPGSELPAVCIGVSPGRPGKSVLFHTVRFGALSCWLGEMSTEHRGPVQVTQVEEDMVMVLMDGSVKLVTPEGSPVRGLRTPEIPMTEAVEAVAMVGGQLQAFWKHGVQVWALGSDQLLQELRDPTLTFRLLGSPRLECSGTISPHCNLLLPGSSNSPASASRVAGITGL
assay.text: HPK1-FL HTRF Enzymatic Assay (HTRF)
Format: biochemical
condition.set: HPK full length T165E S171E 0.125 nM, ATP 1 mM, Biotin-SLP76 100 nM, read-out: HPK1 Ki (nM), H = HTRF
experimental.endpoint: Ki (nM)

>>> df
                                   compound  experimental_endpoint  reading
0  CN[C@H]1CCN(c2cc(C)c(-c3cc4cc(Nc5cc6n(n5)CC(=O)N(C)CC6)ncc4cc3F)cn2)C1 (single isomer, unassigned) [Compound 206b]                     Ki      6.2
1  Cc1c(-c2cc3cc(Nc4cc5n(n4)CC(=O)N(C)CC5)ncc3cc2F)cnc2c1C(O)CCO2 (single isomer, unassigned) [Compound 180b]                     Ki     4.82
2  Cc1c(N)cncc1-c1cc2cc(Nc3cc4n(n3)CC(=O)N(C)CC4(C)O)ncc2cc1F (single isomer, unassigned) [Compound 185b]                     Ki    0.037
3  CN[C@@H]1CCc2c(-c3cc4cc(Nc5cc6n(n5)CC(=O)N(C)CC6)ncc4cc3F)cncc21 (single isomer, unassigned) [Compound 228a]                     Ki      8.3
